- Method Description: In vivo metabolism of CBC, mouse blood plasma (LC-MS/MS)
- Parameters: species or system mice
- Conditions: mice, CBC 20 mg/kg IV or IP, plasma at 0.5 and 2 h
Property Name: detection as product of CBC metabolism in mouse plasma

[[record]]
molecule = "CCCCCc1cc(O)c2c(c1)OC(C)(CC/C=C(\\C)CO)C=C2 (stereo not shown) [8′-hydroxy-CBC]"
endpoint_value = "detected"

[[record]]
molecule = "CCCCCc1cc(O)c2c(c1)OC(C)(CCC1OC1(C)C)C=C2 (stereo not shown)"
endpoint_value = "detected"

[[record]]
molecule = "CCCCCc1cc(O)c2c(c1)OC(C)(CCC(O)C(C)(C)O)C=C2 (stereo not shown) [6′,7′-dihydroxy-CBC]"
endpoint_value = "detected"


// data source = paper PMC11061835
